The measurements presented in this section are drawn from PubChem BioAssay AID1159580.

Test: chemical genetic growth profiling, strain panel (AID 1159580);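 further: tested at 20 µM; growth read once vehicle control cultures reached saturation at 30 °C; lower values mean less growth of the strain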
Conditions: S. cerevisiae deletion strains, growth OD, locus YCR088W, strain abp1
About 2,000 (36%) of roughly 5,500 compounds were called active. Another 18% or so got no clear call; they are omitted. No stated cut-off is given here; in the data, active means normalized growth mostly below about 0.91 (no sharp cut-off); inconclusive means no clear call, values can overlap the other calls; inactive means mostly above about 0.92. The list shows a part of the results.
Outcome codes: active, inactive

compound	answer-label
N[C@@H](C(=O)O)[C@@H](O)[C@H](O)[C@H](O)CO	inactive
COC(=O)[C@@H]1OC(=O)C2OC23[C@@]1(C)CCC1[C@@]2(C)CCC(=O)C(C)(C)C2C[C@@H](OC(C)=O)[C@]13C (some centres undefined)	inactive
COc1ccc2c(c1)OCC(Cc1ccc(OC)c(OC(C)=O)c1)C2=O (centres undefined)	inactive
O=C(O)[C@@H](S)[C@@H](S)C(=O)O	inactive
Cc1cc(CC(=O)O)n(C)c1C(=O)c1ccc(Cl)cc1	inactive
Clc1ccc(CO/N=C(/Cn2ccnc2)c2ccc(Cl)cc2Cl)c(Cl)c1	active
COc1cc(C)c2c(=O)cc(-c3ccccc3)oc2c1	active
CC(=O)C1CCC2C3CCC4C[C@H](O)CCC4(C)C3C[C@H](O)C12C (some centres undefined)	inactive
CCC(C)C(=O)c1c(O)c(C)c2oc3c(C)c(O)c(C(=O)C(C)CC)c(O)c3c2c1O (centres undefined)	inactive
CC1C/C=C/C=C/C=C/C=C/C(O[C@@H]2O[C@H](C)[C@@H](O)[C@H](N)[C@@H]2O)CC2OC(O)(CC(O)CC3OC3/C=C/C(=O)O1)CC(O)C2C(=O)O (some centres undefined)	active
NC1(C(=O)O)CC1	inactive
O=C(O)CCC1NCC2CC1CN1CCCCC21 (centres undefined)	inactive
C[C@]12CCC3c4ccc(OC(=O)c5ccccc5)cc4CCC3C1CCC2=O (some centres undefined)	inactive
COC1C=CC23c4cc5c(cc4CN(CC2O)[C@@H]3C1)OCO5 (some centres undefined)	inactive
